Data provenance: patent US20230080054A1

studySystem: human ANO6 (Homo sapiens)
Construct: expressed in transfected cells
experimentDescription: YFP quenching assay (ANO6 ion channel activity)
Assay type: cell-based
testSettings: test compound 1 μM, 10 μM ionomycin, read-out: Inhibition Level 1 μM
Can you tell me inhibition at 1 µM for the items I'm about to list?

Qu. Bench note: what inhibition at 1 µM did O=C(Nc1ccc(Cl)c(Cl)c1)c1cccc(Nc2ncc(-c3cccc(F)c3)cn2)c1 [Compound 118] show?
Ans. ≥ 60%

Qu. Same read-out for Cc1ccc(CNC(=O)c2cccc(Nc3ccc(-c4ccc(F)cc4)nn3)c2)cc1 [Compound A22] ?
Ans. ≥ 60%

Qu. Another compound to look at: O=C(NCC1CC1)c1cccc(Nc2ccc(-c3ccccc3)nn2)c1 [Compound 32]
Ans. ≥ 60%

Qu. Another compound: O=C(NCCCN1CCCC1)c1cccc(Nc2ccc(-c3ccccc3)nn2)c1 [Compound 21]
Ans. < 30%

Qu. Then Cc1ccc(CNC(=O)c2cccc(Nc3ccc(C4CC4)nn3)c2)o1 [Compound 43] ?
Ans. < 30%

====

Exercise: state measured inhibition at 1 µM for each of the compounds provided.
studySystem: human ANO6 (Homo sapiens, UniProt Q4KMQ2)
Construct: expressed in transfected cells
Sequence (Q4KMQ2 1-931 isoform Q4KMQ2-2): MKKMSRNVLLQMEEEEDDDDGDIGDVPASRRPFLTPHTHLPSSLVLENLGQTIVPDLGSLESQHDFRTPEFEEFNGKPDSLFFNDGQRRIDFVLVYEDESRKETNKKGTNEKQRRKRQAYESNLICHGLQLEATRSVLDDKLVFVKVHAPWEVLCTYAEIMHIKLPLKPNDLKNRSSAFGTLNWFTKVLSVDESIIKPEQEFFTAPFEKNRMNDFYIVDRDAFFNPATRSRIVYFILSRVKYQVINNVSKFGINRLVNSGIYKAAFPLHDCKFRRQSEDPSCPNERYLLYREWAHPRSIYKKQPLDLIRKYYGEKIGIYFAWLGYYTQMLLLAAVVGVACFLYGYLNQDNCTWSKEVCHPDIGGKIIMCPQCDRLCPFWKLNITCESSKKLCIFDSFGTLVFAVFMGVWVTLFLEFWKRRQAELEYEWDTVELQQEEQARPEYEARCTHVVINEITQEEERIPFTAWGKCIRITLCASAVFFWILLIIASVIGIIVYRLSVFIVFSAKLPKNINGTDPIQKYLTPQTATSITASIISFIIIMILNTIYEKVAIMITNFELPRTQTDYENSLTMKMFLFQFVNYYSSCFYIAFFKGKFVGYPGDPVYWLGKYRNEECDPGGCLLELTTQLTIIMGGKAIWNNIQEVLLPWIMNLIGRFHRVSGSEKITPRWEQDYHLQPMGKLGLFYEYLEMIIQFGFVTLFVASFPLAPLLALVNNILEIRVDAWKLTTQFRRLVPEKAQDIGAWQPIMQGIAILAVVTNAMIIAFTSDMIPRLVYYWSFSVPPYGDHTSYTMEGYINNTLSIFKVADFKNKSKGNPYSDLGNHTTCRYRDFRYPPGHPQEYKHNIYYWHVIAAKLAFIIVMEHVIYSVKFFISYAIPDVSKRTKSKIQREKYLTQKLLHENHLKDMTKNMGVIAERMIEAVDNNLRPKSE
experimentDescription: LACT C2 assay (phosphatidylserine scramblase function assay)
Type: cell-based
testSettings: test compound 1 μM, FRT cells expressing human ANO6, 10 μM ionomycin, read-out: Inhibition Level 1 μM

Qu. For the compound Cc1ccc(CNC(=O)c2cccc(Nc3ncc(-c4ccccc4)cn3)c2)o1 [Compound 2] , what inhibition at 1 µM is on record?
Ans. ≥ 60%

Qu. Now try CCCCCCCNC(=O)c1cccc(Nc2ccc(-c3ccccc3)nn2)c1 [Compound A38] .
Ans. ≥ 60%

Qu. Lookup O=C(N[C@@H]1C[C@H]1c1ccccc1)c1cccc(Nc2ncc(-c3cccc(F)c3)cn2)c1 [Compound 119]
Ans. ≥ 60%

Qu. Let us now turn to N#CC1(NC(=O)c2cccc(Nc3ccc(-c4ccccc4)nn3)c2)CC1 [Compound 225]
Ans. 30 to 60%

Qu. Could you do the same for O=C(N[C@@H]1C[C@H]1c1ccc(Cl)c(F)c1)c1cccc(Nc2ccc(-c3ccccc3)nn2)c1 [Compound 221] , please?
Ans. ≥ 60%

Qu. Note, next up: Cc1ccc(CNC(=O)c2cccc(Nc3ncc(-c4ccc(C)o4)cn3)c2)o1 [Compound 92]
Ans. < 30%

Qu. # repeat for CN1CCC(CCNC(=O)c2cccc(Nc3ccc(-c4cccc(F)c4)cn3)c2)CC1 [Compound 139]
Ans. < 30%

Qu. Same for O=C(NC1CCCCC1)c1cccc(Nc2ccc(-c3ccc(F)cc3)nn2)c1 [Compound A2]
Ans. < 30%

Qu. What about this compound? Nc1cccc(CCNC(=O)c2cccc(Nc3ncc(-c4cccc(F)c4)cn3)c2)c1 [Compound 147]
Ans. < 30%

Qu. Try this compound too: Cc1cccc(-c2ccc(Nc3cccc(C(=O)NCC(C)C)c3)nn2)c1 [Compound A32]
Ans. < 30%

Qu. Continue with O=C(NCCc1ccccc1)c1cccc(Nc2ncc(-c3ccccc3)cn2)c1 [Compound 52]
Ans. 30 to 60%

Qu. # repeat for O=C(NC1CC1c1ccccc1)c1cccc(Nc2ccc(-c3ccccc3)nn2)c1 (centres unmarked) [Compound 67]
Ans. ≥ 60%

Qu. How about this compound: Cc1ccc(CNC(=O)c2cccc(Nc3ccc(C4CCCCC4)nn3)c2)o1 [Compound 63]
Ans. < 30%

Qu. Likewise for Cc1cc(F)ccc1CNC(=O)c1cccc(Nc2ccc(-c3ccccc3)nn2)c1 [Compound 210] ?
Ans. ≥ 60%

Qu. Try this compound next: O=C(NCc1ccc(F)c(F)c1F)c1cccc(Nc2ncc(-c3cccc(F)c3)cn2)c1 [Compound 217]
Ans. 30 to 60%

Qu. // next record O=C(NCc1ccc(F)cc1Br)c1cccc(Nc2ccc(-c3ccccc3)nn2)c1 [Compound 200]
Ans. ≥ 60%

Qu. Note, next up: O=C(NC1CCCCCC1)c1cccc(Nc2ccc(-c3ccc(F)cc3)nn2)c1 [Compound A3]
Ans. ≥ 60%

Qu. Can you check O=C(NC1CCC1)c1cccc(Nc2ccc(-c3ccccc3)nn2)c1 [Compound 25] next?
Ans. 30 to 60%

Qu. Follow-up entry: CCOc1ccc(CNC(=O)c2cccc(Nc3ccc(-c4ccccc4)nn3)c2)cc1OCC [Compound A54]
Ans. < 30%

Qu. Try O=C(N[C@@H]1C[C@H]1c1ccccc1)c1cccc(Nc2ccc(-c3ccccc3)nn2)c1 [Compound 68] next.
Ans. ≥ 60%

Qu. Same question, CCN(CC)c1ccc(CNC(=O)c2cccc(Nc3ccc(-c4ccccc4)nn3)c2)cc1 [Compound A55] this time
Ans. < 30%

Qu. What would you report for CCCCNC(=O)c1cccc(Nc2ccc(-c3ccccc3)nn2)c1 [Compound A65] ?
Ans. 30 to 60%

Qu. Try this compound too: N#Cc1cccc(NC(=O)c2cccc(Nc3ncc(-c4cccc(F)c4)cn3)c2)c1 [Compound 136]
Ans. ≥ 60%
